- System: S. aureus, B. subtilis, E. coli, C. albicans and A. niger
- assay_name: Average antimicrobial activity
- Format: cell-based
- experimental_conditions: mean of five pMIC values
measurement_name: pMICam
Answer with a bare number; do not write a unit.

Provide pMICam value for the following compound: CCCCCCCCCCCCCCCC(=O)n1c(-c2ccc(S(=O)(=O)O)cc2)nc2ccccc21 [Compound 19]
1.86

Query pMICam for O=C(c1cccc(O)c1)n1c(-c2ccc(S(=O)(=O)O)cc2)nc2ccccc21 [Compound 6]
1.87

Report pMICam for Nc1ccc(C(=O)n2c(-c3ccc(S(=O)(=O)O)cc3)nc3ccccc32)cc1 [Compound 3]
1.74

Supply recorded pMICam for O=C(c1cccnc1)n1c(-c2ccc(S(=O)(=O)O)cc2)nc2ccccc21 [Compound 15] here.
1.98

----------
- System: S. aureus, B. subtilis and E. coli
- assay_name: Average antibacterial activity
- Assay type: cell-based
- experimental_conditions: average antibacterial activity (pMICsa + pMICbs + pMICec)/3
Label criterion met when pMICab >= 2; otherwise criterion not met.

| molecule | class_label |
| --- | --- |
| COc1ccc(C(=O)n2c(-c3ccc(S(=O)(=O)O)cc3)nc3ccccc32)cc1 | criterion met |
| Nc1ccccc1C(=O)n1c(-c2ccc(S(=O)(=O)O)cc2)nc2ccccc21 | criterion met |
| O=C(c1ccc(Cl)cc1)n1c(-c2ccc(S(=O)(=O)O)cc2)nc2ccccc21 | criterion met |
| O=C(c1cccnc1)n1c(-c2ccc(S(=O)(=O)O)cc2)nc2ccccc21 | criterion met |
| CCCCC(=O)n1c(-c2ccc(S(=O)(=O)O)cc2)nc2ccccc21 | criterion not met |

Could you verify whether the entry O=C(c1ccccc1)n1c(-c2ccc(S(=O)(=O)O)cc2)nc2ccccc21 shows pMICab of no less than 2?
criterion met

Would you say C/C=C/C(=O)n1c(-c2ccc(S(=O)(=O)O)cc2)nc2ccccc21 shows pMICab at minimum 2?
criterion not met

----------
Here, each record is paired with measured EC50 data.
- Tested on: Reovirus-1
- assay_name: organism not typed
- Format: cell-based
- experimental_conditions: Vero, read-out: EC50 Reovirus-1

Here is how some molecules turned out for EC50.
| smiles_str | measurement_name | reported_result |
| --- | --- | --- |
| C/C=C/C(=O)n1c(-c2ccc(S(=O)(=O)O)cc2)nc2ccccc21 | EC50 | > 100 µg/mL |
| C=C(C)C(=O)n1c(-c2ccc(S(=O)(=O)O)cc2)nc2ccccc21 | EC50 | > 100 µg/mL |
| COc1ccc(C(=O)n2c(-c3ccc(S(=O)(=O)O)cc3)nc3ccccc32)cc1 | EC50 | > 100 µg/mL |
| Nc1ccccc1C(=O)n1c(-c2ccc(S(=O)(=O)O)cc2)nc2ccccc21 | EC50 | > 4 µg/mL |
| Nc1ccc(C(=O)n2c(-c3ccc(S(=O)(=O)O)cc3)nc3ccccc32)cc1 | EC50 | > 100 µg/mL |

Item O=C(c1ccccc1)n1c(-c2ccc(S(=O)(=O)O)cc2)nc2ccccc21 : provide EC50
> 100 µg/mL

Specify EC50 for CCCCCCCC/C=C/CCCCCCCC(=O)n1c(-c2ccc(S(=O)(=O)O)cc2)nc2ccccc21 and stop.
> 100 µg/mL

Please report EC50 for the following molecule: C=CC(=O)n1c(-c2ccc(S(=O)(=O)O)cc2)nc2ccccc21
> 100 µg/mL
